Target: Quadruplex DNA
Assay: Binding affinity to G-quadruplex c-KIT1 5-FAM-GGGAGGGCGCTGGGAGGAGGG-TAMRA-3 (unknown origin) assessed as dissociation constant by isothermal titration calorimetry (ITC) assay
Format: nucleic-acid assay
measured.quantity: Kd

Could you share which Kd value was measured for CN(C)CCCNC(=O)c1ccc(-n2cc(-c3ccc4[nH]c5ccccc5c4c3)nn2)cc1 ?
1600 nM

* * *

Biological target: Quadruplex DNA
Test: Binding affinity to G-quadruplex BCL-2 5-FAM-AGGGGCGGGCGCGGGAGGAAGGGGGCGGGAGCGGGGCTG-TAMRA-3 (unknown origin) assessed as dissociation constant by fluorescence spectroscopy assay
Type: nucleic-acid assay
measured.quantity: pKd
Would you please state pKd, meaning minus log10 of the concentration in mol/L, as a bare number?

Could you share which pKd value was measured for CN(C)CCCNC(=O)c1ccc(-n2cc(-c3ccc4[nH]c5ccccc5c4c3)nn2)cc1 ?
5.32

* * *

System: Quadruplex DNA
Assay: Stabilization of G-quadruplex BCL2 5-FAM-AGGGGCGGGCGCGGGAGGAAGGGGGCGGGAGCGGGGCTG-TAMRA-3 (unknown origin) assessed as change in melting temperature at 1 uM incubated for 1 hr in dark condition by FRET-based melting assay
Format: nucleic-acid assay
The following compounds are listed with their measured ΔTm values.

Some compounds with recorded ΔTm:
compound: NCCn1cc(-c2ccc3[nH]c4ccccc4c3c2)nn1
ΔTm: < 5.5 °C

compound: Nc1nc(CC(=O)Nc2nc(CC(=O)NCCCn3cc(-c4ccc5[nH]c6ccccc6c5c4)nn3)cs2)cs1
ΔTm: < 5.5 °C

compound: O=C(Nc1ccc(-n2cc(-c3ccc4oc5ccccc5c4c3)nn2)cc1)C1CCCN1 (centres undefined)
ΔTm: < 6 °C

API: the following record is the query input.
// lookup ΔTm | system=Quadruplex DNA | key= Nc1ccc(-n2cc(-c3ccc4oc5ccccc5c4c3)nn2)cc1
< 6 °C

* * *

Test system: Quadruplex DNA
Experiment: Stabilization of G-quadruplex h-TELO 5-FAM-TTGGGTTAGGGTTAGGGTTAGGGA-TAMRA-3 (unknown origin) assessed as change in melting temperature at 1 uM incubated for 1 hr in dark condition by FRET-based melting assay
Format: nucleic-acid assay
measured.quantity: ΔTm

compound: CN(C)CCCn1cc(-c2ccc3oc4ccccc4c3c2)nn1
ΔTm: < 6 °C
//
compound: NCCCCC(N)C(=O)Nc1ccc(-n2cc(-c3ccc4[nH]c5ccccc5c4c3)nn2)cc1 (stereo not given)
ΔTm: < 5.5 °C
//
compound: CN(C)CCCNC(=O)c1ccc(-n2cc(-c3ccc4oc5ccccc5c4c3)nn2)cc1
ΔTm: < 3 °C

Could you share which ΔTm value was measured for NCCn1cc(-c2ccc3oc4ccccc4c3c2)nn1 ?
< 6 °C

// repeat for NCCCCC(N)C(=O)Nc1ccc(-n2cc(-c3ccc4oc5ccccc5c4c3)nn2)cc1 (stereo not given) and report
< 6 °C

* * *

System: Quadruplex DNA
Experiment: Stabilization of G-quadruplex VEGF 5-FAM-CGGGGCGGGCCGGGGGCGGGGT-TAMRA-3 (unknown origin) assessed as change in melting temperature at 1 uM incubated for 1 hr in dark condition by FRET-based melting assay
Type: nucleic-acid assay
measured.quantity: ΔTm

compound: NCCCCC(N)C(=O)Nc1ccc(-n2cc(-c3ccc4[nH]c5ccccc5c4c3)nn2)cc1 (stereo not given)
ΔTm: < 5.5 °C

compound: O=C(Nc1ccc(-n2cc(-c3ccc4oc5ccccc5c4c3)nn2)cc1)C1CCCN1 (stereo not given)
ΔTm: < 6 °C

compound: CN(C)CCCn1cc(-c2ccc3[nH]c4ccccc4c3c2)nn1
ΔTm: < 5.5 °C

compound: NCCn1cc(-c2ccc3oc4ccccc4c3c2)nn1
ΔTm: < 6 °C

Could you share which ΔTm value was measured for Nc1nc(CC(=O)Nc2nc(CC(=O)NCCCn3cc(-c4ccc5oc6ccccc6c5c4)nn3)cs2)cs1 ?
< 6 °C

* * *

System: Quadruplex DNA
Test: Stabilization of G-quadruplex BCL2 5-FAM-AGGGGCGGGCGCGGGAGGAAGGGGGCGGGAGCGGGGCTG-TAMRA-3 (unknown origin) assessed as change in melting temperature at 1 uM incubated for 1 hr in dark condition by FRET-based melting assay
Format: nucleic-acid assay
The following molecules are listed with their measured ΔTm values.

Some molecules with recorded ΔTm:
molecule: Nc1ccc(-n2cc(-c3ccc4[nH]c5ccccc5c4c3)nn2)cc1
value.reported: < 5.5 °C
//
molecule: CN(C)CCCn1cc(-c2ccc3[nH]c4ccccc4c3c2)nn1
value.reported: < 5.5 °C
//
molecule: O=C(Nc1ccc(-n2cc(-c3ccc4[nH]c5ccccc5c4c3)nn2)cc1)C1CCCN1 (stereo not given)
value.reported: < 5.5 °C
//
molecule: NCCCCC(N)C(=O)Nc1ccc(-n2cc(-c3ccc4oc5ccccc5c4c3)nn2)cc1 (stereo not given)
value.reported: < 6 °C
//
molecule: NCCCCC(N)C(=O)Nc1ccc(-n2cc(-c3ccc4[nH]c5ccccc5c4c3)nn2)cc1 (stereo not given)
value.reported: < 5.5 °C

Could you share which ΔTm value was measured for CN(C)CCCn1cc(-c2ccc3oc4ccccc4c3c2)nn1 ?
< 6 °C

// repeat for CN(C)CCCNC(=O)c1ccc(-n2cc(-c3ccc4[nH]c5ccccc5c4c3)nn2)cc1 and report
2.2 °C

// repeat for Nc1nc(CC(=O)Nc2nc(CC(=O)NCCCn3cc(-c4ccc5oc6ccccc6c5c4)nn3)cs2)cs1 and report
< 6 °C

// repeat for CN(C)CCCNC(=O)c1ccc(-n2cc(-c3ccc4oc5ccccc5c4c3)nn2)cc1 and report
< 3 °C

// repeat for NCCn1cc(-c2ccc3oc4ccccc4c3c2)nn1 and report
< 6 °C

* * *

Tested on: Quadruplex DNA
Test: Stabilization of calf thymus […] ds DNA 5-FAM-CAATCGGATCGAATTCGATCCGATTG-TAMRA-3 assessed as change in melting temperature at 1 uM incubated for 1 hr in dark condition by FRET-based melting assay
Assay type: nucleic-acid assay
Details: Bos taurus
The following molecules are listed with their measured ΔTm values.

Could you share which ΔTm value was measured for Nc1nc(CC(=O)Nc2nc(CC(=O)NCCCn3cc(-c4ccc5[nH]c6ccccc6c5c4)nn3)cs2)cs1 ?
< 5.5 °C

// repeat for NCCn1cc(-c2ccc3[nH]c4ccccc4c3c2)nn1 and report
< 5.5 °C

// repeat for O=C(Nc1ccc(-n2cc(-c3ccc4[nH]c5ccccc5c4c3)nn2)cc1)C1CCCN1 (centres undefined) and report
< 5.5 °C

// repeat for Nc1nc(CC(=O)Nc2nc(CC(=O)NCCCn3cc(-c4ccc5oc6ccccc6c5c4)nn3)cs2)cs1 and report
< 6 °C

// repeat for NCCCCC(N)C(=O)Nc1ccc(-n2cc(-c3ccc4oc5ccccc5c4c3)nn2)cc1 (centres undefined) and report
< 6 °C

* * *

System: Quadruplex DNA
Assay: Stabilization of G-quadruplex c-KIT1 5-FAM-GGGAGGGCGCTGGGAGGAGGG-TAMRA-3 (unknown origin) assessed as change in melting temperature at 1 uM incubated for 1 hr in dark condition by FRET-based melting assay
Format: nucleic-acid assay
measured.quantity: ΔTm

molecule: CN(C)CCCNC(=O)c1ccc(-n2cc(-c3ccc4oc5ccccc5c4c3)nn2)cc1
value.reported: < 3 °C
--
molecule: CN(C)CCCn1cc(-c2ccc3[nH]c4ccccc4c3c2)nn1
value.reported: < 5.5 °C
--
molecule: Nc1nc(CC(=O)Nc2nc(CC(=O)NCCCn3cc(-c4ccc5oc6ccccc6c5c4)nn3)cs2)cs1
value.reported: < 6 °C
--
molecule: O=C(Nc1ccc(-n2cc(-c3ccc4oc5ccccc5c4c3)nn2)cc1)C1CCCN1 (centres undefined)
value.reported: < 6 °C
--
molecule: CN(C)CCCNC(=O)c1ccc(-n2cc(-c3ccc4[nH]c5ccccc5c4c3)nn2)cc1
value.reported: 20.1 °C
--
molecule: NCCCCC(N)C(=O)Nc1ccc(-n2cc(-c3ccc4[nH]c5ccccc5c4c3)nn2)cc1 (centres undefined)
value.reported: < 5.5 °C

Could you share which ΔTm value was measured for Nc1ccc(-n2cc(-c3ccc4oc5ccccc5c4c3)nn2)cc1 ?
< 6 °C

// repeat for NCCCCC(N)C(=O)Nc1ccc(-n2cc(-c3ccc4oc5ccccc5c4c3)nn2)cc1 (centres undefined) and report
< 6 °C

// repeat for NCCn1cc(-c2ccc3oc4ccccc4c3c2)nn1 and report
< 6 °C

* * *

Tested on: Quadruplex DNA
Experiment: Stabilization of G-quadruplex c-MYC 5-FAM-TGGGGAGGGTGGGGAGGGTGGGGAAGG-TAMRA- 3 (unknown origin) assessed as change in melting temperature at 1 uM incubated for 1 hr in dark condition by FRET-based melting assay
Type: nucleic-acid assay
The following compounds are listed with their measured ΔTm values.

Some compounds with recorded ΔTm:
compound: O=C(Nc1ccc(-n2cc(-c3ccc4[nH]c5ccccc5c4c3)nn2)cc1)C1CCCN1 (centres undefined)
measured.quantity: ΔTm
value.reported: < 5.5 °C
--
compound: NCCCCC(N)C(=O)Nc1ccc(-n2cc(-c3ccc4[nH]c5ccccc5c4c3)nn2)cc1 (centres undefined)
measured.quantity: ΔTm
value.reported: < 5.5 °C
--
compound: O=C(Nc1ccc(-n2cc(-c3ccc4oc5ccccc5c4c3)nn2)cc1)C1CCCN1 (centres undefined)
measured.quantity: ΔTm
value.reported: < 6 °C
--
compound: NCCCCC(N)C(=O)Nc1ccc(-n2cc(-c3ccc4oc5ccccc5c4c3)nn2)cc1 (centres undefined)
measured.quantity: ΔTm
value.reported: < 6 °C
--
compound: CN(C)CCCn1cc(-c2ccc3oc4ccccc4c3c2)nn1
measured.quantity: ΔTm
value.reported: < 6 °C

Could you share which ΔTm value was measured for Nc1nc(CC(=O)Nc2nc(CC(=O)NCCCn3cc(-c4ccc5oc6ccccc6c5c4)nn3)cs2)cs1 ?
< 6 °C

// repeat for CN(C)CCCNC(=O)c1ccc(-n2cc(-c3ccc4[nH]c5ccccc5c4c3)nn2)cc1 and report
3.2 °C

// repeat for NCCn1cc(-c2ccc3oc4ccccc4c3c2)nn1 and report
< 6 °C
